Values were extracted from patent US12036301B2.

# Tested on: S. epidermidis
# protocol-description: Tier 1 Anaerobic MIC Assay
# Type: cell-based, Staphylococcus epidermidis (clinical isolate)
# experimental-conditions: raw material, BHI with 1% Tween 80, 37° C. overnight
microbial inhibition concentration (MIC), S. epidermidis reference

The cases that follow already have their microbial inhibition concentration (MIC), S. epidermidis on record.
* [Cl-].[Na+] | >25000 ppm
* CCCCC(CC)COCC(O)CO (stereo not drawn) | 12500 ppm
* [Ca+2].[Cl-].[Cl-] | >50000 ppm

CCCCCCCCC(CO)CCCCCC (stereo not drawn) on S. epidermidis gives microbial inhibition concentration (MIC), S. epidermidis = 3031 ppm

O=C([O-])[O-].[Ca+2] [Ca Carbonate, calcium carbonate] on S. epidermidis gives microbial inhibition concentration (MIC), S. epidermidis = >2500 ppm

C=CCCCCCCCCC(=O)N[C@@H](Cc1ccccc1)C(=O)O [Sepiwhite] on S. epidermidis gives microbial inhibition concentration (MIC), S. epidermidis = 1000 ppm
